test: Ocular tissue concentrations (aqueous humor, vitreous humor, iris, retina, choroid, cornea) after topical ocular, subcutaneous and intravitreal administration; format: in vivo, New Zealand White rabbits; settings: New Zealand White, rabbit, iris, subcutaneous, 5 mg/kg/dose, TABLE 16: Iris, 0.5 hr, OS; free acid, subcutaneous 5 mg/kg/dose, Group 3; read-out: Iris Conc. (ng/g) OS
measurementKind: concentration at 0.5 h (ng/g)

>>> quantitativereadout("COC(=O)N[C@@H](Cc1ccccc1)C(=O)N[C@@H](Cc1ccc(NS(=O)(=O)O)cc1)c1csc(-c2cccs2)n1")
47

====

test: Ocular tissue concentrations (aqueous humor, vitreous humor, iris, retina, choroid, cornea) after topical ocular, subcutaneous and intravitreal administration; format: in vivo, New Zealand White rabbits; conditions: New Zealand White, rabbit, retina, subcutaneous, 5 mg/kg/dose, TABLE 16: Retina, 2 hr; free acid, subcutaneous 5 mg/kg/dose, Group 3; read-out: Retina Average
measurementKind: concentration at 2 h (ng/g)

>>> quantitativereadout("COC(=O)N[C@@H](Cc1ccccc1)C(=O)N[C@@H](Cc1ccc(NS(=O)(=O)O)cc1)c1csc(-c2cccs2)n1 [Compound 1]")
10.5

====

test: Ocular tissue concentrations (aqueous humor, vitreous humor, iris, retina, choroid, cornea) after topical ocular, subcutaneous and intravitreal administration; assay type: in vivo, New Zealand White rabbits; conditions: New Zealand White, rabbit, vitreous humor, other: intravitreal, 2.5 mg per eye, Group 4 intravitreal 2.5 mg per eye; 6.0 hr; read-out: vitreous humor Conc., individual eyes (OD, OS)
Counter-ions that a name gives are not always drawn.
measurementKind: concentration at 6 hr

>>> result("COC(=O)N[C@@H](Cc1ccccc1)C(=O)N[C@@H](Cc1ccc(NS(=O)(=O)O)cc1)c1csc(-c2cccs2)n1 [Compound 1 sodium salt]")
"592 µg/mL"

====

assay: Ocular tissue concentrations (aqueous humor, vitreous humor, iris, retina, choroid, cornea) after topical ocular, subcutaneous and intravitreal administration; format: in vivo, New Zealand White rabbits; settings: New Zealand White, rabbit, iris, subcutaneous, 5 mg/kg/dose, Iris, 1 hr; free acid, subcutaneous 5 mg/kg/dose, Group 3; read-out: Iris Average
measurementKind: concentration at 1 h (ng/g)

>>> quantitativereadout("COC(=O)N[C@@H](Cc1ccccc1)C(=O)N[C@@H](Cc1ccc(NS(=O)(=O)O)cc1)c1csc(-c2cccs2)n1")
58

====

assay: Plasma concentrations and pharmacokinetic parameters after topical ocular, subcutaneous and intravitreal administration; assay type: in vivo, New Zealand White rabbits; details: New Zealand White, rabbit, plasma, topical, 1.2 mg/eye, topical ocular 1.2 mg/eye (~0.7 mg/kg/dose); 1.0 hr; read-out: plasma Conc., individual rabbit
Where a name gives a salt, the structure may show the parent alone.
measurementKind: concentration at 1 h (ng/mL)

>>> quantitativereadout("COC(=O)N[C@@H](Cc1ccccc1)C(=O)N[C@@H](Cc1ccc(NS(=O)(=O)O)cc1)c1csc(-c2cccs2)n1 [Compound 1 sodium salt]")
1.28

====

Test: Ocular tissue concentrations (aqueous humor, vitreous humor, iris, retina, choroid, cornea) after topical ocular, subcutaneous and intravitreal administration
Assay type: in vivo, New Zealand White rabbits
Settings: New Zealand White, rabbit, retina, other: intravitreal, 2.5 mg/eye, Retina, 24 hr; sodium salt, intravitreal 2.5 mg/eye, Group 4; read-out: Retina Avg.
Procedure: To measure the concentration of Compound 1 in plasma and ocular tissues following topical ocular, subcutaneous, and intravitreal administration, New Zealand White rabbits were administered Compound 1, and plasma and ocular samples were collected at pre-determined time points. […] Ocular tissue samples from both eyes of each animal were collected and weights were recorded. Plasma and ocular tissue sample concentrations of Compound 1 were determined by LC-MS/MS. […]
measurementKind: concentration at 24 h (ng/g)

>>> quantitativereadout("COC(=O)N[C@@H](Cc1ccccc1)C(=O)N[C@@H](Cc1ccc(NS(=O)(=O)O)cc1)c1csc(-c2cccs2)n1")
356000

Sourced from patent US11666558B2
